List of Relative cAMP EC50 values.
target: human glucagon receptor (human) (UniProt P47871); assay: cell-based or functional assay
Sequence (P47871 26-477): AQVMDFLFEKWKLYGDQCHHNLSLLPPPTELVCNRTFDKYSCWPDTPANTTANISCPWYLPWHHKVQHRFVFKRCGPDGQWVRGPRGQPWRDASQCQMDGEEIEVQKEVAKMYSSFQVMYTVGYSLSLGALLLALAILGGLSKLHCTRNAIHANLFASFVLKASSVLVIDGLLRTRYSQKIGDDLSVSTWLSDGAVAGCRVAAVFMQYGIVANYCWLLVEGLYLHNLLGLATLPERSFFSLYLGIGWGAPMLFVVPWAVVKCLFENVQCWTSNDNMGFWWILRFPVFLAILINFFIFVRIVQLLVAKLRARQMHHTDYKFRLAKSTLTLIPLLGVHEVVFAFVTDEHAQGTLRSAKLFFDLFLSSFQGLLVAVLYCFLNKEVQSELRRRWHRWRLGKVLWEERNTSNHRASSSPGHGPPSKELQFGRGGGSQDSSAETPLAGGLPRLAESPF
MEASURED_ENDPOINT: Relative cAMP EC50 (nM)

binder="YXQGTFTSDFSKXLDKKAQXAFIEYLLEGAPSSGAPPPSEG (synthetic construct; SITE 2: note = 2-Aminoisobutyric Acid; SITE 13: note = alpha-methyl-leucine; SITE 17: note = Lysine is chemically modified through conjugation of the epsilon-amino group of the Lysine side chain with (2-[2-(2-Amino-ethoxy)-ethoxy]-acetyl)-(gamma-Glu)-CO-(CH2) 18-CO2H; SITE 20: n) [Example 47]" readout_unit=nM test_result=5.61
binder="YXQGTXTSDXXIXLDXKAQXEFIEXLVEGGPSSGAPPPSGE (synthetic construct; SITE 2: note = 2-Aminoisobutyric Acid; SITE 6: note = alpha-methyl-2-fluoro-L-phenylalanine; SITE 10: note = 3-(4-Pyridyl)-L-alanine; SITE 11: note = alpha-methyl-L-serine; SITE 13: note = alpha-methyl-leucine; SITE 16: note = L-ornithine; SITE 17: note = Lysine is chemically mo) [Example 749]" readout_unit=nM test_result=2.21
binder="YXQGTFTSDFSKXLDKKAQXAFIEWLLEGGPSSGAPPPSEG (Aib, αMeL; K acylated; C-terminal amide; synthetic construct; SITE 2: note = 2-Aminoisobutyric Acid; SITE 13: note = alpha-methyl-leucine; SITE 17: note = Lysine is chemically modified through conjugation of the epsilon-amino group of the Lysine side chain with (2-[2-(2-Amino-ethoxy)-ethoxy]-acetyl)-(gamma-Glu)-CO-(CH2) 18-CO2H; SITE 20: n) [Example 37]" readout_unit=nM test_result=6.83
